FYI, the data here is from ChEMBL document CHEMBL1146827.

method description: Compound was tested for inhibitory activity against sialidase from Salmonella Typhimurium
Parameters: species or system Salmonella enterica subsp. enterica serovar Typhimurium
pIC50: −log10 of the molar value.
Quick reference for pIC50 among some compounds
value type: pIC50

compound | inequality sign | obs value
CC(=O)N[C@@H]1[C@H](O)C=C(P(=O)(O)O)C[C@H]1OCCO.N.N | = | 2.74
CC(=O)N[C@@H]1[C@@H](O)C=C(P(=O)(O)O)C[C@H]1OCC(O)CO.N.N (some centres undefined) | < | 2.40
C=CCO[C@@H]1CC(P(=O)(O)O)=C[C@H](O)[C@H]1NC(C)=O.CCN(CC)CC.CCN(CC)CC | > | 2.70
CC(=O)N[C@H]1[C@H](O)CC(P(=O)(O)O)=C[C@@H]1O.N.N | = | 3.00

----------
method description: Compound was tested for inhibitory activity against sialidase from Vibrio cholerae
pIC50: −log10 of the molar value.

test smiles | pIC50
CC(=O)N[C@H]1[C@H](O)CC(P(=O)(O)O)=C[C@@H]1O.N.N | 2.74
CC(=O)N[C@@H]1[C@H](O)C=C(P(=O)(O)O)C[C@H]1OCCO.N.N | 2.80
C=CCO[C@@H]1CC(P(=O)(O)O)=C[C@H](O)[C@H]1NC(C)=O.CCN(CC)CC.CCN(CC)CC | 2.82
